study-target: Androgen receptor (Homo sapiens, UniProt P10275)
Sequence (P10275 whole entry): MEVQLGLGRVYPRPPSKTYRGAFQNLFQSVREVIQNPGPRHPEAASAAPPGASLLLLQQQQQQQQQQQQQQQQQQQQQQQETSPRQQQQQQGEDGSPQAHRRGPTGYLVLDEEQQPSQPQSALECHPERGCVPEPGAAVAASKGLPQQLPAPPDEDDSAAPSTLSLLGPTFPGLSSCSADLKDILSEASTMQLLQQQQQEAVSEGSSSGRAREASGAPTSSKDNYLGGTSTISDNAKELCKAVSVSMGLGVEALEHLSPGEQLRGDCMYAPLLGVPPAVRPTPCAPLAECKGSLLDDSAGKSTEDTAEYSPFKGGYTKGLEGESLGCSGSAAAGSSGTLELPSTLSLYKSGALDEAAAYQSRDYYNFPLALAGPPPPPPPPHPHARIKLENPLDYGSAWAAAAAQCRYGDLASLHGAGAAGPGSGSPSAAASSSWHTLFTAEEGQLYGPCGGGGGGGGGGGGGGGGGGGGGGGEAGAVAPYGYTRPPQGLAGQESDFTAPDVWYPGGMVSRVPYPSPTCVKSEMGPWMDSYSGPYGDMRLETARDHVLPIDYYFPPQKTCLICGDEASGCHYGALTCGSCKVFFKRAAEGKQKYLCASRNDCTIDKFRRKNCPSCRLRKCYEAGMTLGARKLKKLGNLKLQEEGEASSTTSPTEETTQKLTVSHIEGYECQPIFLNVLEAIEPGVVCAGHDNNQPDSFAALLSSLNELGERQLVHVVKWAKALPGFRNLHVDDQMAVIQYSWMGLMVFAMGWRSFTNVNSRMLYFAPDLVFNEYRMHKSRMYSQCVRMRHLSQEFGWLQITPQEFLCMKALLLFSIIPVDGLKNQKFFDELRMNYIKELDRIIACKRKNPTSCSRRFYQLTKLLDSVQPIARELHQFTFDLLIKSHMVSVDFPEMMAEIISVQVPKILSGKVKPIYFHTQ
Measured IC50, listed per entry for reference.
Give just the number in nM; leave the unit off.

Please review the following examples before continuing.
compound: C[C@]12CN(S(=O)(=O)c3ccccc3)C[C@](C)(O1)[C@@H]1C(=O)N(c3ccc(C#N)c(C(F)(F)F)c3)C(=O)[C@@H]12
study-target: Androgen receptor (Homo sapiens, UniProt P10275)
endpoint-unit: nM
IC50: 99

compound: CCOC(=O)N1C[C@@]2(C)O[C@@](C)(C1)[C@@H]1C(=O)N(c3ccc(C#N)c(C(F)(F)F)c3)C(=O)[C@@H]12
study-target: Androgen receptor (Homo sapiens, UniProt P10275)
endpoint-unit: nM
IC50: 65

compound: C[C@]12CN(C(=O)c3ccccc3)C[C@](C)(O1)[C@@H]1C(=O)N(c3ccc(C#N)c(C(F)(F)F)c3)C(=O)[C@@H]12
study-target: Androgen receptor (Homo sapiens, UniProt P10275)
endpoint-unit: nM
IC50: 54

compound: CC(C)NC(=O)N1C[C@@]2(C)O[C@@](C)(C1)[C@@H]1C(=O)N(c3ccc(C#N)c(C(F)(F)F)c3)C(=O)[C@@H]12
study-target: Androgen receptor (Homo sapiens, UniProt P10275)
endpoint-unit: nM
IC50: 876

compound: CC(C)OC(=O)N1C[C@@]2(C)O[C@@](C)(C1)[C@@H]1C(=O)N(c3ccc(C#N)c(C(F)(F)F)c3)C(=O)[C@@H]12
study-target: Androgen receptor (Homo sapiens, UniProt P10275)
endpoint-unit: nM
IC50: 12

compound: C[C@]12CN(C(=O)Nc3ccc(F)cc3)C[C@](C)(O1)[C@@H]1C(=O)N(c3ccc(C#N)c(C(F)(F)F)c3)C(=O)[C@@H]12
study-target: Androgen receptor (Homo sapiens, UniProt P10275)
endpoint-unit: nM
IC50: 39

compound: CN1C(=O)[C@]2(C)O[C@](C)(C1=O)[C@H]1C(=O)N(c3ccc(C#N)c(C(F)(F)F)c3)C(=O)[C@H]12
study-target: Androgen receptor (Homo sapiens, UniProt P10275)
endpoint-unit: nM
IC50: 2140

compound: C[C@]12CN(S(=O)(=O)c3ccc(F)cc3)C[C@](C)(O1)[C@@H]1C(=O)N(c3ccc(C#N)c(C(F)(F)F)c3)C(=O)[C@@H]12
study-target: Androgen receptor (Homo sapiens, UniProt P10275)
endpoint-unit: nM
IC50: 54

Okay, now this compound:
CCCN1C[C@@]2(C)O[C@@](C)(C1)[C@@H]1C(=O)N(c3ccc(C#N)c(C(F)(F)F)c3)C(=O)[C@@H]12 tested on Androgen receptor (Homo sapiens, UniProt P10275) gave IC50: 14

---

Measured Ki, listed per entry for reference.
study-target: Androgen receptor (Homo sapiens)
measurement-description: Displacement of [3H]DHT from AR in human MDA-MB-453 cells

Please review the following examples before continuing.
smiles-data: CC(C)C(=O)N1C[C@@]2(C)O[C@@](C)(C1)[C@@H]1C(=O)N(c3ccc(C#N)c(C(F)(F)F)c3)C(=O)[C@@H]12
study-target: Androgen receptor (Homo sapiens)
measured-quantity: Ki
observed-value: 39 nM
--
smiles-data: C[C@]12CN(C(=O)Nc3ccccc3)C[C@](C)(O1)[C@@H]1C(=O)N(c3ccc(C#N)c(C(F)(F)F)c3)C(=O)[C@@H]12
study-target: Androgen receptor (Homo sapiens)
measured-quantity: Ki
observed-value: 40 nM

Okay, now this molecule:
So, CC(C)NC(=O)N1C[C@@]2(C)O[C@@](C)(C1)[C@@H]1C(=O)N(c3ccc(C#N)c(C(F)(F)F)c3)C(=O)[C@@H]12 ? Its Ki was 98 nM

---

study-target: Androgen receptor (Homo sapiens)
One threshold, 100 nM, splits the recorded IC50 values: lower ones are condition met, equal or higher ones are condition not met.

input: Decide: IC50 of C[C@]12O[C@](C)(C(=O)N(CC3CC3)C1=O)[C@H]1C(=O)N(c3ccc(C#N)c(C(F)(F)F)c3)C(=O)[C@H]12 strictly below 100 nM?
output: condition not met

input: Decide: IC50 of CCS(=O)(=O)N1C[C@@]2(C)O[C@@](C)(C1)[C@@H]1C(=O)N(c3ccc(C#N)c(C(F)(F)F)c3)C(=O)[C@@H]12 strictly below 100 nM?
output: condition met

input: Decide: IC50 of C[C@]12CN(C(=O)Nc3ccccc3)C[C@](C)(O1)[C@@H]1C(=O)N(c3ccc(C#N)c(C(F)(F)F)c3)C(=O)[C@@H]12 strictly below 100 nM?
output: condition met

input: Decide: IC50 of C[C@]12CNC[C@](C)(O1)[C@@H]1C(=O)N(c3ccc(C#N)c(C(F)(F)F)c3)C(=O)[C@@H]12 strictly below 100 nM?
output: condition not met

input: Decide: IC50 of CCNC(=O)N1C[C@@]2(C)O[C@@](C)(C1)[C@@H]1C(=O)N(c3ccc(C#N)c(C(F)(F)F)c3)C(=O)[C@@H]12 strictly below 100 nM?
output: condition not met

input: Decide: IC50 of C[C@]12CN(O)C[C@](C)(O1)[C@@H]1C(=O)N(c3ccc(C#N)c(C(F)(F)F)c3)C(=O)[C@@H]12 strictly below 100 nM?
output: condition not met

input: Decide: IC50 of CC(C)N1C(=O)[C@]2(C)O[C@](C)(C1=O)[C@H]1C(=O)N(c3ccc(C#N)c(C(F)(F)F)c3)C(=O)[C@H]12 strictly below 100 nM?
output: condition met

---

Quick record of IC50 values for Androgen receptor (Homo sapiens).
Give just the number in nM; leave the unit off.

Please review the following examples before continuing.
molecule: C[C@]12CN(c3cccc(S(C)(=O)=O)c3)C[C@](C)(O1)[C@@H]1C(=O)N(c3ccc(C#N)c(C(F)(F)F)c3)C(=O)[C@@H]12
study-target: Androgen receptor (Homo sapiens)
IC50, nM: 7.4
--
molecule: C[C@]12CN(c3ncccn3)C[C@](C)(O1)[C@@H]1C(=O)N(c3ccc(C#N)c(C(F)(F)F)c3)C(=O)[C@@H]12
study-target: Androgen receptor (Homo sapiens)
IC50, nM: 31
--
molecule: CC(C)C(=O)N1C[C@@]2(C)O[C@@](C)(C1)[C@@H]1C(=O)N(c3ccc(C#N)c(C(F)(F)F)c3)C(=O)[C@@H]12
study-target: Androgen receptor (Homo sapiens)
IC50, nM: 215
--
molecule: CC(C)[N+]1([O-])C(=O)[C@]2(C)O[C@](C)(C1=O)[C@H]1C(=O)N(c3ccc(C#N)c(C(F)(F)F)c3)C(=O)[C@H]12 (stereo not given in full)
study-target: Androgen receptor (Homo sapiens)
IC50, nM: 3900

So, CCC(=O)N1C[C@@]2(C)O[C@@](C)(C1)[C@@H]1C(=O)N(c3ccc(C#N)c(C(F)(F)F)c3)C(=O)[C@@H]12 ? Its IC50 was 129
